The measured values listed here are drawn from ChEMBL document CHEMBL1201862.

- Tested on: LXFL 529
- Method Summary: NCI tumour cell line growth inhibition, 48 h
Active and inactive are the calls of the source. Rule as the data show it: active = GI50 up to about 1.1 µM and inactive = higher.
Pick one and only one: 1.0 (active), 0.0 (inactive)

* O=S1(=O)COc2ccccc2-c2ncncc21 | 0.0
* COc1cccc2c1C(=O)c1c(O)c3c(c(O)c1C2=O)C[C@@](O)(C(=O)CO)CC3OC1CC(N)C(OC2CCCCO2)C(C)O1 (stereo not given in full) | 1.0
* O=C(Nc1c(O)[nH]c(=S)[nH]c1=O)c1ccc2ccccc2n1 | 0.0

Prompt: Just curious, what result did COC1CC2C3/C(=N/Nc4ccc([N+](=O)[O-])cc4[N+](=O)[O-])CCC2(C)C3C1 (stereo not given) get here?
Completion: 0.0

Prompt: Just curious, what result did NC(=O)N/N=C(\CC1OC(=O)c2ccccc21)c1ccc([N+](=O)[O-])cc1 (stereo not given) get here?
Completion: 0.0
